test system: Target C; assay: HiBiT protein abundance assay, Target C; format: cell-based, human; settings: Homo sapiens, K562, 24 h, Table 13A, modified K562 cells
pIC50: −log10 of the molar value.
Reported pIC50 values are given for each entry in this list.

CN(c1ccc(-c2ccc(-c3cnn(CC4CC4)n3)c3cn[nH]c23)nn1)[C@@H]1C[C@H]2CC[C@@H](C1)N2 :: 5.00 to 6.00
Cc1cc(-c2ccc(-c3ccc(O[C@H]4C[C@@H]5CC(F)(F)[C@H](C4)N5)nn3)c3[nH]ncc23)ccn1 (single isomer, unassigned) :: < 5.00
CNC1CCN(c2ncc(-c3ccc(-n4cccn4)c4[nH]ncc34)nn2)C1 (stereo not shown) :: 5.00 to 6.00
c1nc2c(-c3cn[nH]c3)ccc(-c3ccc(N[C@H]4C[C@H]5COC[C@@H](C4)N5)nn3)c2s1 :: < 5.00
CN(C)[C@H]1[C@@H]2CN(c3ccc(-c4ccc(-c5cn[nH]c5)c5cn[nH]c45)nn3)C[C@@H]21 :: 5.00 to 6.00

Any idea what its pIC50 is? The compound is CN(c1ccc(-c2ccc(-c3cn[nH]c3)c3ncsc23)nn1)[C@@H]1C[C@H]2CCC[C@@H](C1)N2
> 7.00

If you can, please state the reported pIC50 value of CCN(c1ccc(-c2ccc(-c3cn[nH]c3)c3cn[nH]c23)nn1)C1CC(C)(C)NC(C)(C)C1 .
5.00 to 6.00

====

system: Target C; test: HiBiT protein abundance assay, Target C; type: cell-based, human; conditions: Homo sapiens, K562, 24 h, Table 13A, modified K562 cells
pIC50: −log10 of the molar value.
TEST_READOUT: pIC50

Study these solved cases before continuing.
CN(c1ncc(-c2ccc(-n3cncn3)c3[nH]ncc23)nn1)[C@@H]1C[C@H]2CCC[C@@H](C1)N2 :: > 7.00
CN(c1ccc(-c2ccc(-c3cnn(C)c3)c3cn[nH]c23)nn1)C1CCNCC1 :: < 5.00
CN(c1ccc(-c2ccc(-c3cn[nH]c3)c3nc[nH]c23)nn1)[C@@H]1C[C@H]2CC[C@@H](C1)N2 :: < 5.00
c1n[nH]cc1-c1ccc(-c2ccc(O[C@@H]3C[C@H]4CC[C@@H](C3)N4)nn2)c2cn[nH]c12 :: < 5.00
CN(c1ccc(-c2ccc(-n3cccn3)c3cn[nH]c23)nn1)C1CCNCC1 :: 5.00 to 6.00

# lookup: pIC50 of CN1C[C@@H]2[C@H](C1)[C@H]2N(C)c1ccc(-c2ccc(-c3cn[nH]c3)c3cn[nH]c23)nn1
< 5.00

// returns reported pIC50 for input CN(c1ccc(-c2ccc(-c3ccc(=O)[nH]c3)c3scnc23)nn1)C1CC(C)(C)NC(C)(C)C1
6.00 to 7.00

====

Recorded IC50 for the following compounds
Test system: Target C
Test: Splicing RT-qPCR panel, Target C canonical junction (CJ) mRNA
Assay type: cell-based, human
Details: Homo sapiens, RT-qPCR panel, canonical junction mRNA; compound concentration having 50% response in CJ decrease; read-out: Target C IC50 (decrease in CJ mRNA levels)
Experimental: Compounds described herein were used to modulate RNA transcript abundance in cells. The expression of a target mRNA was measured by detecting the formation of an exon-exon junction in the canonical transcript (CJ). A compound mediated exon-inclusion event was detected by observing an increase in formation of a new junction with an alternative exon (AJ). Real-time qPCR assays were used to detect these splicing switches and interrogate the potency of various compounds towards different target genes. […]

c1nc2c(-c3cn[nH]c3)ccc(-c3ccc(N4CC5(CCNCC5)C4)nn3)c2s1 :: > 10 µM
CN(c1ccc(-c2ccc(-c3cn[nH]c3)c3ncsc23)nn1)[C@@H]1C[C@H]2CC(F)(F)[C@@H](C1)N2 (stereo in doubt) :: 0.1 to 1 µM
COc1cc(-c2ccc(-c3ccc(N(C)C4CC(C)(C)NC(C)(C)C4)nn3)c3scnc23)ccn1 :: 1 to 10 µM
CC1(C)CC(Oc2ccc(-c3ccc(-c4cn[nH]c4)c4cn[nH]c34)nn2)CC(C)(C)N1 :: 0.1 to 1 µM
Cc1ncc(-c2ccc(-c3cnc(N(C)[C@@H]4C[C@H]5CCC[C@@H](C4)N5)nn3)c3scnc23)s1 :: 0.1 to 1 µM

// lookup IC50 for CC(C)(C)[C@@H]1CN(c2ncc(-c3ccc(-n4cccn4)c4[nH]ncc34)nn2)CCN1
1 to 10 µM

So what's the measured IC50 for this one? CN(c1ccc(-c2ccc(-c3cn[nH]c3)c3[nH]ncc23)nn1)[C@@H]1C[C@H]2CC[C@@H](C1)N2
> 10 µM

Look up IC50: c1n[nH]cc1-c1ccc(-c2ccc(N3CCC(NC4CC4)C3)nn2)c2[nH]ncc12 (stereo not drawn)
> 10 µM

For the compound CN1C[C@@H]2CN(c3ccc(-c4ccc(-c5cn[nH]c5)c5cn[nH]c45)nn3)C[C@@H]2C1 , what IC50 is on record?
> 10 µM

Can you share its IC50? I mean this compound: CN(c1ccc(-c2ccc(-c3cnn(C)c3)c3cn[nH]c23)nn1)C1CC(C)(C)NC(C)(C)C1
> 10 µM

Look up IC50 for this compound: c1nc2c(-c3cn[nH]c3)ccc(-c3cnc(N4CCC(NC5CC5)C4)nn3)c2s1 (stereo not drawn)
> 10 µM

Can you look up the measured IC50 of CC1(C)CC(Oc2ccc(-c3ccc(-c4cn[nH]c4)c4cn[nH]c34)nn2)CCN1 (stereo not drawn) for me?
> 10 µM

Which IC50 reading was recorded for the compound c1cnn(-c2ccc(-c3ccc(N4CCC(NC5CC5)C4)nn3)c3scnc23)c1 (stereo not drawn) ?
> 10 µM

// returns reported IC50 for input c1nc2c(-c3cn[nH]c3)ccc(-c3ccc(N4CCCC5(CNC5)C4)nn3)c2s1
> 10 µM

Which measured IC50 value corresponds to CN(c1ncc(-c2ccc(-c3cn[nH]c3)c3ncsc23)nn1)[C@@H]1CC2CCC[C@@H](C1)N2C ?
> 10 µM

Where do the numbers come from? From patent US20240368163A1.
